All figures here come from PubChem BioAssay (NCATS).

Assay: Quantitative High-Throughput drug screen in 47 multiple myeloma cell lines against the NCATS MIPE library collection: JIM3_ECACC cell viability assay (AID 1918963; further: nearly all actives have a fitted effect of over 35% in size)
Conditions: JIM3 myeloma viability, CellTiter-Glo ATP, 48 h; series mostly up to 45.8 µM
Inconclusive results are not listed. Active and inactive are the calls of the source. The call rests on the fitted dose curve; in most records, active means well fitted cell-killing curve with a large enough effect; inconclusive means small, poorly fitted or top-dose-only effect; inactive means no such curve, though single readings can be large or run the other way.
The reply should be one of these categories: class 1 (active), class 0 (inactive)

Hey, what did the test say about "NC(=O)Nc1cc(-c2ccc(CN3CCOCC3)cc2)sc1C(N)=O" ?
class 1

Hey, what did the test say about "CCc1c(O)cc(O)c(C(=O)c2ccc(OCCN3CCOCC3)c(OC)c2)c1CC(=O)N(CCOC)CCOC" ?
class 1

Hey, what did the test say about "COc1cc(OC)cc(-c2ccc3ncc4ccc(=O)n(-c5ccc(N6CCNCC6)c(C(F)(F)F)c5)c4c3c2)c1" ?
class 1

Hey, what did the test say about "COc1ccnc2[nH]cc(C(=O)C(=O)N3CCN(C(=O)c4ccccc4)C[C@@H]3C)c12" ?
class 0

----------
Answer each item with its documented Potency.
Assay: qHTS Screen of the MIPE 4.0 Collection Against Ewings Sarcoma (EW8) (AID 1259255); further: potency means the concentration at half of the fitted maximal effect; nearly all actives have a fitted effect of over 35% in size
Conditions: EW8 Ewing sarcoma viability, CellTiter-Glo, 48 h; series mostly up to 45.8 µM
Results filed as inconclusive are left out. Calls of active or inactive are those of the source. Calls follow the shape of the dose curve; as a rule, active = well fitted inhibition curve with a large enough effect; inconclusive = small, poorly fitted or top-dose-only effect; inactive = no such curve, though single readings can be large or run the other way.

I have this compound here, "O=c1c(O)c(-c2ccc(O)c(O)c2)oc2cc(O)ccc12" , and I need its recorded Potency.
16.6 µM (active)

I have this compound here, "COc1cc(OC)c(C=CS(=O)(=O)Cc2ccc(OC)c(NCC(=O)O)c2)c(OC)c1" , and I need its recorded Potency.
0.235 µM (active)

I have this compound here, "CCOC(=O)N1CCN([N+]([O-])=NOc2ccc([N+](=O)[O-])cc2[N+](=O)[O-])CC1" , and I need its recorded Potency.
3.32 µM (active)

I have this compound here, "COc1cc([C@@H]2c3cc4c(cc3[C@H](O)[C@H]3COC(=O)[C@@H]23)OCO4)cc(OC)c1OC" , and I need its recorded Potency.
0.105 µM (active)

I have this compound here, "COc1ccc(S(=O)(=O)Nc2cccnc2Nc2ccc(O)cc2)cc1" , and I need its recorded Potency.
0.0935 µM (active)

I have this compound here, "Cc1ccc([N+](=O)[O-])cc1S(=O)(=O)N(C)N=Cc1cnc2ccc(Br)cn12" , and I need its recorded Potency.
0.0372 µM (active)

I have this compound here, "COc1cc(C(=O)NC2CCN(C)CC2)ccc1Nc1ncc2c(n1)N(C1CCCC1)CCC(=O)N2C(C)C" , and I need its recorded Potency.
2.09 µM (active)

----------
System: HEK293
Assay: Cytotoxic Profiling of Annotated Libraries Using Quantitative High-Throughput Screening (AID 1296008); further: nearly all actives have a fitted effect of over 60% in size
Conditions: Five cell lines viability, CellTiter-Glo ATP luminescence, 48-72 h
Description: Cell-based phenotypic screening is a commonly used approach to discover biological pathways, novel drug targets, chemical probes and high-quality hit-to-lead molecules. […] A pintool (Kalypsys) was used to transfer 23 nL of compound solution to the 1536-well assay plates. […] Plates were left at room temperature for 10 min before imaging the ATP-coupled luminescence using a ViewLux microplate imager (PerkinElmer, Waltham, MA).
Inconclusive results are not listed. Calls of active or inactive are those of the source. Calls come from the whole dose curve; as a rule, active = well fitted inhibition curve with a large enough effect; inconclusive = small, poorly fitted or top-dose-only effect; inactive = flat fitted curve, though single readings scatter. Non-standard residues stand in square brackets, D forms with d. Residues, ends and D or L forms follow the SMILES beside them. *: point of attachment. Nva = CCC[C@H](N)C(=O)O; Cbz = O=C(OCc1ccccc1)*
The reply should be one of these categories: 1 (yes) = active, 0 (no) = inactive

Hey, what did the test say about "Cc1ncc(-c2ccnc(Nc3ccc(S(C)(=O)=O)cc3)n2)n1C(C)C" ?
1 (yes)

Hey, what did the test say about "Oc1ccc([C@@H]2Oc3ccc(O)cc3[C@@H]3CCC[C@@H]32)cc1" ?
1 (yes)

Hey, what did the test say about "Cc1cnc(Nc2ccc(CN3CCOCC3)cc2)nc1Nc1cccc(S(=O)(=O)NC(C)(C)C)c1" ?
1 (yes)

Hey, what did the test say about "CN(CC(=O)N(Cc1ccc(C2CCCCC2)cc1)c1ccc(C(=O)O)c(O)c1)S(=O)(=O)c1c(F)c(F)c(F)c(F)c1F" ?
0 (no)

Hey, what did the test say about "CNC(=O)Nc1ccc(-c2nc(N3CC4CCC(C3)O4)c3cnn(C4CCC5(CC4)OCCO5)c3n2)cc1" ?
1 (yes)

Hey, what did the test say about "Cc1[nH]c(C=C2C(=O)Nc3ccccc32)c(C)c1CCC(=O)O" ?
1 (yes)

Hey, what did the test say about "O=S(=O)(O)CCSSCCS(=O)(=O)O" ?
0 (no)

Hey, what did the test say about "Cc1cnc(Nc2ccc(N3CCN(C)CC3)cc2)nc1Nc1cccc(S(=O)(=O)NC(C)(C)C)c1" ?
1 (yes)

Hey, what did the test say about OCCNC1CCCc2c1[nH]c1ccc(-c3ccccc3)cc21 (configuration not stated) ?
1 (yes)

Hey, what did the test say about CCC[C@@H](C=O)NC(=O)[C@H](CC(C)C)NC(=O)[C@H](CC(C)C)NC(=O)OCc1ccccc1 (Cbz-Leu-Leu-[Nva]-aldehyde) ?
1 (yes)

Hey, what did the test say about COc1cc(C)c(Sc2cnc(NC(=O)c3ccc(CNC(C)C(C)(C)C)cc3)s2)cc1C(=O)N1CCN(C(C)=O)CC1 (configuration not stated) ?
1 (yes)

Hey, what did the test say about "Oc1cc(-c2nc(-c3ccccc3)[nH]c2-c2ccncc2)ccc1Cl" ?
1 (yes)

Hey, what did the test say about "CCOc1cc2c(c(F)c1OCC)C(=N)N(CC(=O)c1cc(N3CCOCC3)c(OC)c(C(C)(C)C)c1)C2" ?
1 (yes)

Hey, what did the test say about "COc1ccc(C=Cc2cc(OC)c(OC)c(OC)c2)cc1NC(=O)[C@H](N)CO" ?
1 (yes)

Hey, what did the test say about "NS(=O)(=O)OC[C@@H]1C[C@@H](n2ccc3c(N[C@H]4CCc5ccccc54)ncnc32)C[C@H]1O" ?
1 (yes)

Hey, what did the test say about "COC(=O)[C@@H]1CC2=CC(=O)CC[C@]2(C)[C@@]23O[C@@H]2C[C@@]2(C)[C@H](CC[C@@]24CCC(=O)O4)[C@@H]13" ?
0 (no)

Hey, what did the test say about "COc1ccc(Nc2cc(-c3cnc(N)nc3)nc(N3CCOCC3)n2)cn1" ?
1 (yes)

Hey, what did the test say about "Cn1cc(CNCC2CCN(c3ncc(C(=O)NO)cn3)CC2)c2ccccc21" ?
1 (yes)

Hey, what did the test say about C=CC(=O)Nc1cccc(Nc2nc(NC3CCC(N(C)C)CC3)nc3c2ncn3C(C)C)c1 (configuration not stated) ?
1 (yes)

Hey, what did the test say about "CCS(=O)(=O)Nc1ccc2[nH]c(O)c(C(=Nc3ccc(CN4CCCCC4)cc3)c3ccccc3)c2c1" ?
1 (yes)

Hey, what did the test say about "CN(C)c1ccc(C(=O)NCCCCCCC(=O)NO)cc1" ?
1 (yes)

Hey, what did the test say about C[C@H]1O[C@H](O[C@H]2[C@H](O)[C@@H](O)[C@@H](O[C@H]3[C@H](O)[C@@H](O)C(O)O[C@H]3CO)O[C@H]2CO)[C@H](O)[C@@H](O)[C@H]1N[C@H]1C=C(CO)[C@@H](O)[C@H](O)[C@@H]1O (some centres not stated) ?
1 (yes)
